# test.name: Cytotoxicity assay (resazurin)
# Format: cell-based
# setup.conditions: human, HEK-293 cells, 24 h treatment, n = 3
readout.name: IC50 at 24 h

Sample answers from the record:
| compound | IC50 at 24 h |
| --- | --- |
| O=C(O)c1ccc(-n2cc(CNc3ccc(Oc4ccccc4)cc3)c(-c3cc(C(F)(F)F)cc(C(F)(F)F)c3)n2)cc1 [Compound 5] | 9.15 µg/mL |
| O=C(O)c1ccc(-n2cc(CNc3ccc(Br)c(Cl)c3F)c(-c3cc(C(F)(F)F)cc(C(F)(F)F)c3)n2)cc1 [Compound 29] | 7 to 8 µg/mL |
| O=C(O)c1ccc(-n2cc(CNc3cc(Cl)c(F)c(Cl)c3)c(-c3cc(C(F)(F)F)cc(C(F)(F)F)c3)n2)cc1 [Compound 28] | 7 to 8 µg/mL |

Proceed to the following item.
Query: State, in one line, measured IC50 at 24 h of O=C(O)c1ccc(-n2cc(CNc3ccc(Br)cc3)c(-c3cc(C(F)(F)F)cc(C(F)(F)F)c3)n2)cc1 [Compound 11]
Result: 7 to 8 µg/mL
